# Test system: 2Sp-muMax20 (muMax20 with two 2,6-bis(methyl)pyridine Cys staples)
# test.summary: PBM 8-mer E-score (E-score (rank enrichment, -0.5 to 0.5)); higher = stronger preferential binding
In all, about 33,000 sequences were measured (“E-score (rank enrichment, -0.5 to 0.5)”: median about -0.0043, highest 2% from about 0.24 on). Shown is part of a subset that was picked to be rich in the highest values.
Decision: PBM 8-mer E-score >= 0.02 yields rule met, all other cases yield rule not met.

Reference set, count: 5
**Q:** Please check the record `GCAATCCC` and state if its PBM 8-mer E-score is at or above 0.02.
**A:** rule met

**Q:** Please check the record `AGGGGACT` and state if its PBM 8-mer E-score is at or above 0.02.
**A:** rule not met

**Q:** Please check the record `ACCCCTAG` and state if its PBM 8-mer E-score is at or above 0.02.
**A:** rule met

**Q:** Please check the record `GATTCCCA` and state if its PBM 8-mer E-score is at or above 0.02.
**A:** rule not met

**Q:** Please check the record `ATTCCACC` and state if its PBM 8-mer E-score is at or above 0.02.
**A:** rule not met

New cases:
**Q:** Please check the record `GTATTAGA` and state if its PBM 8-mer E-score is at or above 0.02.
**A:** rule met

**Q:** Please check the record `ATTAGGTA` and state if its PBM 8-mer E-score is at or above 0.02.
**A:** rule met

**Q:** Please check the record `GTAAATAA` and state if its PBM 8-mer E-score is at or above 0.02.
**A:** rule met

###

# Tested on: 2Sp-muMax20 (muMax20 with two 2,6-bis(methyl)pyridine Cys staples)
# test.summary: PBM 8-mer E-score (E-score (rank enrichment, -0.5 to 0.5)); higher = stronger preferential binding
In all, about 33,000 sequences were measured (“E-score (rank enrichment, -0.5 to 0.5)”: median about -0.0043, highest 2% from about 0.24 on). What follows is part of a selection rich in the highest values, with near analogues and random picks from the rest.
Decision: PBM 8-mer E-score >= 0.06 yields t, all other cases yield f.

Reference set, count: 5
**Q:** Please check the record `CAAAGGCC` and state if its PBM 8-mer E-score is at or above 0.06.
**A:** f

**Q:** Please check the record `ATCTTATC` and state if its PBM 8-mer E-score is at or above 0.06.
**A:** f

**Q:** Please check the record `CAAAAGGC` and state if its PBM 8-mer E-score is at or above 0.06.
**A:** f

**Q:** Please check the record `AAGCGCTA` and state if its PBM 8-mer E-score is at or above 0.06.
**A:** t

**Q:** Please check the record `GGCGAACA` and state if its PBM 8-mer E-score is at or above 0.06.
**A:** f

We now examine a further sequence.
**Q:** Please check the record `CTATTTCC` and state if its PBM 8-mer E-score is at or above 0.06.
**A:** t

###

# Tested on: 2Sp-muMax20 (muMax20 with two 2,6-bis(methyl)pyridine Cys staples)
# test.summary: PBM 8-mer E-score (E-score (rank enrichment, -0.5 to 0.5)); higher = stronger preferential binding
Whole data set: some 33,000 sequences, median “E-score (rank enrichment, -0.5 to 0.5)” near -0.0043, cut for the highest 2% near 0.24. Only a selection was taken, and the highest values are over-represented in it overall.
Decision: PBM 8-mer E-score >= 0.1 yields Met, all other cases yield Not met.

Reference set, count: 10
**Q:** Please check the record `GATAGGGC` and state if its PBM 8-mer E-score is at or above 0.1.
**A:** Not met

**Q:** Please check the record `AGCCCAAC` and state if its PBM 8-mer E-score is at or above 0.1.
**A:** Not met

**Q:** Please check the record `ATCTAGTC` and state if its PBM 8-mer E-score is at or above 0.1.
**A:** Not met

**Q:** Please check the record `CCATAGCA` and state if its PBM 8-mer E-score is at or above 0.1.
**A:** Met

**Q:** Please check the record `AGCGCAAT` and state if its PBM 8-mer E-score is at or above 0.1.
**A:** Not met

**Q:** Please check the record `ATTAATTC` and state if its PBM 8-mer E-score is at or above 0.1.
**A:** Met

**Q:** Please check the record `ATGTTAAC` and state if its PBM 8-mer E-score is at or above 0.1.
**A:** Met

**Q:** Please check the record `GCATCCAC` and state if its PBM 8-mer E-score is at or above 0.1.
**A:** Not met

**Q:** Please check the record `CCTATCCC` and state if its PBM 8-mer E-score is at or above 0.1.
**A:** Not met

**Q:** Please check the record `ATAGTATA` and state if its PBM 8-mer E-score is at or above 0.1.
**A:** Met

New cases:
**Q:** Please check the record `ACGGGGCT` and state if its PBM 8-mer E-score is at or above 0.1.
**A:** Not met

**Q:** Please check the record `AGTAATTA` and state if its PBM 8-mer E-score is at or above 0.1.
**A:** Met

**Q:** Please check the record `CCACATAA` and state if its PBM 8-mer E-score is at or above 0.1.
**A:** Not met

Data origin: the supplement of paper PMC12636033
